Source listed as the kinase profiling compilation of Christmann-Franck et al. (2016).

Molecular target: UniProt P49761
Sequence (P49761 whole entry, looked up): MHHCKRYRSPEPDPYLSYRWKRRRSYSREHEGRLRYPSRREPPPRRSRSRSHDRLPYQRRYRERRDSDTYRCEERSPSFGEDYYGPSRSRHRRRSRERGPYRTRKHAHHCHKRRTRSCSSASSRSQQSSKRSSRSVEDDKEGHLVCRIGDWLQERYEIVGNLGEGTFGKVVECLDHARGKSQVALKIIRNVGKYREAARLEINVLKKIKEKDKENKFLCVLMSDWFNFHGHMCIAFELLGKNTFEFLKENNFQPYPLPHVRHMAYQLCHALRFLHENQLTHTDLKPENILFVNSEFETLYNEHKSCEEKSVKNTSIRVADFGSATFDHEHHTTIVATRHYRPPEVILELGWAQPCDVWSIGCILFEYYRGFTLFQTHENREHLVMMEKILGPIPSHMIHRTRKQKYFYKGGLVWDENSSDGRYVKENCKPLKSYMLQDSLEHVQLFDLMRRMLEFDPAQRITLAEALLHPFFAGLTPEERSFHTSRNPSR
Assay: radiometric filter-binding kinase assay, Kinase HotSpot
Conditions: compound 0.5 µM; ATP 10 µM
I'd appreciate it if you could supply residual activity values for the items below.
One number for each entry, in %.

>  <Molecule>
CCCNC(=O)Nc1ccc(Oc2ncnc3cc(OC)c(OC)cc23)cc1Cl

>  <residual activity (%)>
98.8

$$$$
>  <Molecule>
O=c1cc(N2CCNCC2)oc2c(-c3ccccc3)cccc12

>  <residual activity (%)>
109

$$$$
>  <Molecule>
CCN1/C(=C/C(C)=O)Sc2ccc(OC)cc21

>  <residual activity (%)>
95

$$$$
>  <Molecule>
O=C(NC(NC(=S)Nc1ccc(F)c([N+](=O)[O-])c1)C(Cl)(Cl)Cl)C(c1ccccc1)c1ccccc1 (stereo not given)

>  <residual activity (%)>
124

$$$$

Batch lookup, residual activity per entry.
1. CC(C)[C@H](CO)Nc1nc(Nc2cccc(Cl)c2)c2ncn(C(C)C)c2n1
2. CS(=O)c1ccc(-c2nc(-c3ccc(F)cc3)c(-c3ccncc3)[nH]2)cc1 (stereo not given)
3. CC(C)n1cnc2c(Nc3cccc(Cl)c3)nc(NCCO)nc21
4. O=C(Nc1ccc(Cl)cc1)c1ccccc1NCc1ccncc1
5. Nc1nc(Nc2ccc(S(N)(=O)=O)cc2)nn1C(=O)c1c(F)cccc1F
6. NC(=O)c1ccc(N(C(N)=O)c2c(F)cccc2F)nc1-c1ccc(F)cc1F

Result:
[89.7, 99.1, 77.8, 98.1, 65.8, 112]

---

Molecular target: CDC42BPB (human) (UniProt Q9Y5S2)
Sequence (Q9Y5S2 whole entry, looked up): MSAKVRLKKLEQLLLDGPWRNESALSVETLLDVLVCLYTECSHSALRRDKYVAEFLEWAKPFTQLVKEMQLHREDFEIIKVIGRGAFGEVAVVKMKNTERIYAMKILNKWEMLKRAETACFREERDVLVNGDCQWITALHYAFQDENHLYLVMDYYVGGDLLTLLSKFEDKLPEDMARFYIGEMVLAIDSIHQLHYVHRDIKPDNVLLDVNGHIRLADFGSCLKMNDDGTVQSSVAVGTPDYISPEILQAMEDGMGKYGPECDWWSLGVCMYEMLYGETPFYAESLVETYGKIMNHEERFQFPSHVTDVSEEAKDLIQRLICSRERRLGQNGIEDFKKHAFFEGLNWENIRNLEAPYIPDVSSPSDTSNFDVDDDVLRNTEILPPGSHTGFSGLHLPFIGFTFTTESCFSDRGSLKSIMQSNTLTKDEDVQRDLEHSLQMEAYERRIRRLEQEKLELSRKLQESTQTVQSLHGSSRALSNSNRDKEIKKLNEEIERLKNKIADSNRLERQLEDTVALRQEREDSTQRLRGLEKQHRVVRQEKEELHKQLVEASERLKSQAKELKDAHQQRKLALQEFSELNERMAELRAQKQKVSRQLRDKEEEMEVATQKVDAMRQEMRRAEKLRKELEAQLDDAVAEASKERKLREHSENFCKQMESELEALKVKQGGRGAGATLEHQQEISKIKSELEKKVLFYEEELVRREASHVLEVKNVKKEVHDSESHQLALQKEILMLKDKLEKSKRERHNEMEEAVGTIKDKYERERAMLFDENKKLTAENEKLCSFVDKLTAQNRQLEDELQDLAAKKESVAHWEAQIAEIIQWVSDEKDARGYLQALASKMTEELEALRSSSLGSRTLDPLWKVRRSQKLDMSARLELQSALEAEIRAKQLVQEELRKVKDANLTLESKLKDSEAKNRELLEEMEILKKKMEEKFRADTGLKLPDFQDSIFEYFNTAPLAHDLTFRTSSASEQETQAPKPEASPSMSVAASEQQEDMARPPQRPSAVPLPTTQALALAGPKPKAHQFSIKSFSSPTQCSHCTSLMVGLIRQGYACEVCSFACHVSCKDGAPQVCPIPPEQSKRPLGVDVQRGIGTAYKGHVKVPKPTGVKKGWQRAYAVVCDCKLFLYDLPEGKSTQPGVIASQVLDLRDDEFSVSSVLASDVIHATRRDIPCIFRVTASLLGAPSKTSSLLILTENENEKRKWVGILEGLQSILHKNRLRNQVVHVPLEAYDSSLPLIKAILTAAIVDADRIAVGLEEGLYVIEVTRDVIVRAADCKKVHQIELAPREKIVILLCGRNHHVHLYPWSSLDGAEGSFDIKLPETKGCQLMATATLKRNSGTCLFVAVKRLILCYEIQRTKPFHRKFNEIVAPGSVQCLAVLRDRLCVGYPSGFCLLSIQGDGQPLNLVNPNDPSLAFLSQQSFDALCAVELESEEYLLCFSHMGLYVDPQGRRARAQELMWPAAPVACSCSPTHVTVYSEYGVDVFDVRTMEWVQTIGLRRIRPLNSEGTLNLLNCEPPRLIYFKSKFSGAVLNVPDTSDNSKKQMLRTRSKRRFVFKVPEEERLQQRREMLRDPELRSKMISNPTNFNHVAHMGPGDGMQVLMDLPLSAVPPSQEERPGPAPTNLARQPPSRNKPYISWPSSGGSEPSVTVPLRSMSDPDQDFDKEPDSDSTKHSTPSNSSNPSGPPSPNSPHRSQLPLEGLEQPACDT
Assay: radiometric filter-binding kinase assay, Kinase HotSpot
Conditions: compound 0.5 µM; ATP 10 µM
I'd appreciate it if you could supply residual activity values for the items below.
Answers are plain numbers, in %.

Below, 10 molecules whose answers are already recorded.
>  <Molecule>
O=C(Nc1ccc(Cl)cc1)c1ccccc1NCc1ccncc1

>  <residual activity / %>
79.9

$$$$
>  <Molecule>
O=C1Nc2ccccc2/C1=C\c1c(Cl)[nH]c2ccccc12

>  <residual activity / %>
102

$$$$
>  <Molecule>
COc1cc2nccc(Oc3ccc(NC(=S)NC(=O)c4ccccc4C)cc3)c2cc1OC

>  <residual activity / %>
90.5

$$$$
>  <Molecule>
O=c1cc(-c2cccc3c2Sc2ccccc2S3)oc(N2CCOCC2)c1

>  <residual activity / %>
103

$$$$
>  <Molecule>
CSc1nc(-c2ccc(F)cc2)c(-c2ccnc(NC(C)c3ccccc3)c2)[nH]1 (stereo not given)

>  <residual activity / %>
98.8

$$$$
>  <Molecule>
Nc1nc(Nc2ccc(S(N)(=O)=O)cc2)nn1C(=O)c1c(F)cccc1F

>  <residual activity / %>
96

$$$$
>  <Molecule>
O=c1cc(N2CCNCC2)oc2c(-c3ccccc3)cccc12

>  <residual activity / %>
97.5

$$$$
>  <Molecule>
COc1ccc(-c2cnc3c(-c4ccsc4)cnn3c2)cc1

>  <residual activity / %>
83.4

$$$$
>  <Molecule>
Clc1ccc(Nc2nnc(Cc3ccncc3)c3ccccc23)cc1

>  <residual activity / %>
99.5

$$$$
>  <Molecule>
CCN1/C(=C/C(C)=O)Sc2ccc(OC)cc21

>  <residual activity / %>
114

$$$$

Batch lookup, residual activity per entry.
1. CCCNC(=O)Nc1ccc(Oc2ncnc3cc(OC)c(OC)cc23)cc1Cl
2. CC(C)[C@H](CO)Nc1nc(Nc2cccc(Cl)c2)c2ncn(C(C)C)c2n1
3. O=C(NC(NC(=S)Nc1ccc(F)c([N+](=O)[O-])c1)C(Cl)(Cl)Cl)C(c1ccccc1)c1ccccc1 (stereo not given)
4. C#Cc1cccc(Nc2ncnc3cc(OCCOC)c(OCCOC)cc23)c1
5. O=C1Cc2c([nH]c3ccc([N+](=O)[O-])cc23)-c2ccccc2N1
6. CC(C)n1cnc2c(Nc3cccc(Cl)c3)nc(NCCO)nc21
7. CS(=O)c1ccc(-c2nc(-c3ccc(F)cc3)c(-c3ccncc3)[nH]2)cc1 (stereo not given)
8. NC(=O)c1ccc(N(C(N)=O)c2c(F)cccc2F)nc1-c1ccc(F)cc1F

Result:
[87.4, 108, 97.2, 98.5, 83.3, 109, 105, 96.5]

Batch lookup, residual activity per entry.
1. Nc1nc(Nc2ccc(S(N)(=O)=O)cc2)nn1C(=S)Nc1c(F)cccc1F
2. Cc1cc2ncc(-c3ccccc3)nc2cc1C

Result:
1: 48.1; 2: 101

---

Target: STK39 (human) (UniProt Q9UEW8)
Experiment: radiometric filter-binding kinase assay, Kinase HotSpot
Conditions: compound 0.5 µM; ATP 10 µM
I'd appreciate it if you could supply residual activity values for the items below.
One number for each entry, in %.

>  <Smiles Repr>
Cc1cc2ncc(-c3ccccc3)nc2cc1C

>  <Measurement Type>
residual activity

>  <Test Value>
103

$$$$

Batch lookup, residual activity per entry.
1. COc1ccc(-c2cnc3c(-c4ccsc4)cnn3c2)cc1
2. O=C1Nc2ccccc2/C1=C\c1c(Cl)[nH]c2ccccc12
3. COc1cc2nccc(Oc3ccc(NC(=S)NC(=O)c4ccccc4C)cc3)c2cc1OC
4. O=c1cc(N2CCNCC2)oc2c(-c3ccccc3)cccc12

Result:
1: 95.1; 2: 104; 3: 91.5; 4: 88.5

---

Biological target: CAMK2A (human)
Test: radiometric filter-binding kinase assay, Kinase HotSpot
Details: compound 0.5 µM; ATP 10 µM
Measurement Type: residual activity (%)
Answers are plain numbers, in %.

Batch lookup, residual activity per entry.
1. COc1ccc(-c2cnc3c(-c4ccsc4)cnn3c2)cc1
2. O=C1Cc2c([nH]c3ccc([N+](=O)[O-])cc23)-c2ccccc2N1
3. Nc1nc(Nc2ccc(S(N)(=O)=O)cc2)nn1C(=S)Nc1c(F)cccc1F
4. Nc1n[nH]c2nnc(-c3c(-c4ccccc4)nn4ccccc34)cc12
5. C#Cc1cccc(Nc2ncnc3cc(OCCOC)c(OCCOC)cc23)c1
6. CC(C)(C)c1nc2c3ccc(F)cc3c3c(=O)[nH]ccc3c2[nH]1
7. O=C(NC(NC(=S)Nc1ccc(F)c([N+](=O)[O-])c1)C(Cl)(Cl)Cl)C(c1ccccc1)c1ccccc1 (stereo not given)

Result:
96.6
88.4
14.3
102
97.6
35.1
96

Batch lookup, residual activity per entry.
1. O=C1Nc2ccccc2/C1=C\c1c(Cl)[nH]c2ccccc12
2. CSc1nc(-c2ccc(F)cc2)c(-c2ccnc(NC(C)c3ccccc3)c2)[nH]1 (stereo not given)
3. NC(=O)c1ccc(N(C(N)=O)c2c(F)cccc2F)nc1-c1ccc(F)cc1F

Result:
1. 103
2. 96.5
3. 90.9

---

I'd appreciate it if you could supply residual activity values for the items below.
Target: TGFBR2 (human)
Assay: radiometric filter-binding kinase assay, Kinase HotSpot
Details: compound 0.5 µM; ATP 10 µM
One number for each entry, in %.

Batch lookup, residual activity per entry.
1. O=c1cc(N2CCNCC2)oc2c(-c3ccccc3)cccc12
2. CSc1nc(-c2ccc(F)cc2)c(-c2ccnc(NC(C)c3ccccc3)c2)[nH]1 (stereo unspecified)

Result:
1: 88.4; 2: 96.5

---

Molecular target: MARK4 (human)
Assay: radiometric filter-binding kinase assay, Kinase HotSpot
Conditions: compound 0.5 µM; ATP 10 µM
I'd appreciate it if you could supply residual activity values for the items below.
One number for each entry, in %.

Below, 3 molecules whose answers are already recorded.
>  <Molecule>
Clc1ccc(Nc2nnc(Cc3ccncc3)c3ccccc23)cc1

>  <Assay Target>
MARK4 (human)

>  <Measurement Type>
residual activity

>  <Test Value>
104

$$$$
>  <Molecule>
COc1cc2ncnc(Nc3ccc(F)c(Cl)c3)c2cc1OCCCN1CCOCC1

>  <Assay Target>
MARK4 (human)

>  <Measurement Type>
residual activity

>  <Test Value>
94.2

$$$$
>  <Molecule>
CC(C)n1cnc2c(Nc3cccc(Cl)c3)nc(NCCO)nc21

>  <Assay Target>
MARK4 (human)

>  <Measurement Type>
residual activity

>  <Test Value>
88.1

$$$$

Batch lookup, residual activity per entry.
1. CSc1nc(-c2ccc(F)cc2)c(-c2ccnc(NC(C)c3ccccc3)c2)[nH]1 (stereo not given)
2. O=C1Nc2ccccc2/C1=C\c1c(Cl)[nH]c2ccccc12
3. Oc1ccc(-c2nc(-c3ccc(F)cc3)c(-c3ccncc3)[nH]2)cc1
4. O=C(NC(NC(=S)Nc1ccc(F)c([N+](=O)[O-])c1)C(Cl)(Cl)Cl)C(c1ccccc1)c1ccccc1 (stereo not given)

Result:
74.6
106
100
104

Batch lookup, residual activity per entry.
1. Cc1ccc(NC(=O)c2ccc(CN3CCN(C)CC3)cc2)cc1Nc1nc(-c2cccnc2)cs1
2. COc1cc2nccc(Oc3ccc(NC(=S)NC(=O)c4ccccc4C)cc3)c2cc1OC
3. CCN1/C(=C/C(C)=O)Sc2ccc(OC)cc21
4. Nc1n[nH]c2nnc(-c3c(-c4ccccc4)nn4ccccc34)cc12

Result:
101
73.3
102
105

Batch lookup, residual activity per entry.
1. O=c1cc(N2CCNCC2)oc2c(-c3ccccc3)cccc12
2. NC(=O)c1ccc(N(C(N)=O)c2c(F)cccc2F)nc1-c1ccc(F)cc1F
3. O=C(Nc1ccc(Cl)cc1)c1ccccc1NCc1ccncc1

Result:
1. 92.8
2. 102
3. 107
